Every entry's value here was drawn from PubChem BioAssay (NCI).

Give growth for every item shown.
# System: SN12C renal
# experiment_notes: NCI-60 one-dose screen, 48 h (100 = growth as untreated, 0 = no growth, -100 = all killed)
# test_settings: 10 µM unless noted
About 83,000 compounds went through this panel and 20% of them were active in at least one assay; those are over-represented in the sample as a whole. The source made the active and inactive calls. The calls were made as follows: active = growth percent below 10; inactive = the rest.

Worked set:
molecule	assayed_target	growth
CC1OC(OC2C(OC3CCC4(C)C(CCC5(C)C4CC=C4C6CC(C)(C)CCC6(CO)C(O)CC45C)C3(C)C)OC(C(=O)O)C(OC3OC(COC4OC(CO)C(O)C(O)C4O)C(O)C(O)C3O)C2O)C(O)C(O)C1O (configuration not stated)	SN12C renal	-77.7% (active)
O=[N+]([O-])c1ccc2c(N=Nc3ccc4ccccc4c3O)c(O)cc(S(=O)(=O)O)c2c1	SN12C renal	99.4% (inactive)
O=C(CC1(O)C(=O)Nc2c(Cl)ccc(Cl)c21)c1ccc(Cl)cc1Cl (configuration not stated)	SN12C renal	104% (inactive)
C[N+](C)=c1ccc2nc3c(cc(NCCCNc4cc5oc6cc(=[N+](C)C)ccc-6nc5c5ccccc45)c4ccccc43)oc-2c1	SN12C renal	-25.5% (active)

State recorded growth for all listed molecules.
1. CN1c2ccccc2C(C)(C)C12C=Cc1cc(O)ccc1O2 (configuration not stated)
2. O=C(Nc1cccc(Br)c1)Oc1ccc(Cl)c2cccnc12
3. C/C=C1\SC(=S)NC1=O
4. CCC(c1cccc(O)c1)C(CC)c1cccc(O)c1 (configuration not stated)
5. Cc1ccc2nc(-[n+]3cc4ccccc4cc3C)ccc2c1
6. O=C(/C=C\c1ccccc1)N1c2ccccc2CC1c1c[nH]c2ccccc12 (configuration not stated)
7. O=C1OCc2cccc3cccc1c23

Reply:
1: 48.7% (inactive); 2: 44.7% [100 µM] (inactive); 3: 101% (inactive); 4: 68.5% (inactive); 5: 13.2% (inactive); 6: 74.3% (inactive); 7: 101% (inactive)

Parameter requested: growth. Apply to each item below.
1. S=C(N/N=C/c1ccccn1)Nc1ccccn1
2. Oc1c(Cl)cc(Cl)c2cccnc12
3. N#CSCc1c(Cl)cccc1Cl
4. COc1ccc(N=N/N=c2\sc3cc(OC)ccc3n2C)cc1
5. CCCCCCC(C)c1ccccc1O (configuration not stated) (tested in a mixture with another compound)
6. N#CC1C(=O)SC2c3ccccc3C(=O)c3ccccc3C12 (configuration not stated)
7. CNC(=O)N/N=C/c1ccc([N+](=O)[O-])o1
8. COC(=O)c1nc(=S)[nH]c(C(=O)OC)c1C(=O)c1ccc2ccccc2c1

Reply:
1. 33.7% (inactive)
2. 57.3% (inactive)
3. 93.3% (inactive)
4. 89% (inactive)
5. 106% (inactive)
6. 101% (inactive)
7. 90.7% (inactive)
8. 97.2% (inactive)

Go through the list and state growth for each entry.
1. C1=C(c2ccccc2)C(c2ccc(OCCN3CCCCC3)cc2)Oc2ccccc21 (configuration not stated)
2. O=C1C2=C(Nc3cc([N+](=O)[O-])ccc3N2)OC1c1c2ccccc2cc2ccccc12 (configuration not stated)
3. Cc1ccc2nc(C[n+]3ccc4ccccc4c3)ccc2c1

Reply:
1. 55.3% (inactive)
2. 30.6% (inactive)
3. 39.3% (inactive)

###

# Tested on: OVCAR-4 ovarian
# experiment_notes: NCI-60 one-dose screen, 48 h
# test_settings: 10 µM unless noted
This is part of a sample that, as a whole, favours compounds with a hit. Of some 83,000 tested, about 20% had one in any assay. Active and inactive are the calls of the source. Rule for the calls: active = growth percent below 10; inactive = the rest.
Give one outcome, nothing more. List: Yes for active, No for inactive

Record excerpt, results attached:
> print(dat)
                                   molecule  assigned.category
1                Oc1c(Br)c(Br)c(O)c(Br)c1Br                 No
2  CCC(CCCN(CC)CCc1ccccc1)OC(=O)c1cc(OC)c(OC)c(OC)c1 (stereo not given)                 No
3               O=C(Nc1ccccc1)c1cc(Cl)ccc1O                 No
4  CC1(C)CC([P+](c2ccccc2)(c2ccccc2)c2ccccc2)=NN1                 No

Query: For this molecule, state the assay outcome: COc1cc(/C=C(/C)C[N+](=O)[O-])ccc1O
Reply: No

Query: State the result this test recorded for COC(=O)c1nc(=S)[nH]c(C(=O)OC)c1C(=O)c1ccccn1 .
Reply: No

Query: Which outcome was entered for the molecule N#CSCc1c(Cl)cccc1Cl in this test?
Reply: No

###

# System: OVCAR-4 ovarian
# experiment_notes: NCI-60 one-dose screen, 48 h
# test_settings: 10 µM unless noted
About 83,000 compounds went through this panel and 20% of them were active in at least one assay; those are over-represented in the sample as a whole. Activity calls are given as the source filed them. How the source made its calls: active means growth percent below 10; inactive means the rest.
// one of true (active), false (inactive), no free text

> print(dat)
                                   compound  assigned.category
1  COc1ccc2nc3cc(Cl)ccc3c(NCCNc3c4ccc(Cl)cc4nc4ccc(OC)cc34)c2c1               true

Query: Tell me the assay call for CN1c2ccccc2C(C)(C)C12C=Cc1cc(O)ccc1O2 (stereo unspecified) please.
Reply: false

Query: Fill in: this test's call for S=C(NCCNC(=S)[S][Sn]([c]1ccccc1)([c]1ccccc1)[c]1ccccc1)[S][Sn]([c]1ccccc1)([c]1ccccc1)[c]1ccccc1 is ___
Reply: true

Query: For CC(C)(C)c1ccc(O)c(C2CCCCC2)c1 , what call appears in the results of this test?
Reply: false

Query: What classification did N#CSCC(=O)c1ccc(Cl)cc1 end up with in this test?
Reply: false

Query: // param item: O=[N+]([O-])c1ccc2c(N=Nc3ccc4ccccc4c3O)c(O)cc(S(=O)(=O)O)c2c1 ; yields the recorded call
Reply: false

###

# Test system: HCC-2998 colon
# experiment_notes: NCI-60 one-dose screen, 48 h
# test_settings: 10 µM unless noted
About 83,000 compounds went through this panel and 20% of them were active in at least one assay; those are over-represented in the sample as a whole. Activity calls are given as the source filed them. How the source made its calls: active means growth percent below 10; inactive means the rest.
I would appreciate it if you answered using one of these outcomes: t (active), f (inactive)

Solved cases below.
> print(dat)
                                   molecule  assayed.target  assigned.category
1  CCC(c1cccc(O)c1)C(CC)c1cccc(O)c1 (stereo unspecified)  HCC-2998 colon                  f
2  Cn1c2c(c3ccccc31)CCN1C[C@@H]3CCCC[C@H]3C[C@@H]21  HCC-2998 colon                  t
3  CN(C)c1ccc(C(=C2C=CC(=[N+](C)C)C=C2)c2ccc(N(C)C)cc2)cc1 (tested in a mixture with another compound)  HCC-2998 colon                  t

Query: Could you please tell me the result logged for Nc1ccc(SSc2ccc(N)cc2)cc1 in this assay?
Reply: f

Query: Hi, do you know how C[N+](C)=c1ccc2nc3c(cc(NCCCNc4cc5oc6cc(=[N+](C)C)ccc-6nc5c5ccccc45)c4ccccc43)oc-2c1 came out in this test?
Reply: f

Query: // outcome(item) with item = O=C1OCc2cccc3cccc1c23
Reply: f

###

Exercise: state measured growth for each of the compounds provided.
# System: UACC-257 melanoma
# experiment_notes: NCI-60 one-dose screen, 48 h (100 = growth as untreated, 0 = no growth, -100 = all killed)
# test_settings: 10 µM unless noted
The panel holds about 83,000 compounds, 20% with a hit somewhere; the sample as a whole holds those more often.
Answers are plain numbers, in %.

These recorded examples may help you get a feel for the data.
> print(dat)
                                   compound  measured
1  CCN(CC)CC(C)(C)C(=O)/C=C/c1ccc(Cl)c(Cl)c1     -5.04
2        Cc1ccc(N=C=C(c2ccccc2)c2ccccc2)cc1      89.1
3  CCC1OC(OC)C=CC1=O (configuration not stated)       117
4  CCOc1ccc(-c2nc3ccc(-c4nc5ccc(N6CCN(C)CC6)cc5[nH]4)cc3[nH]2)cc1     -64.8
5                   NC(=S)N/N=C/c1ccc(Cl)s1       104
6                     O=C1OCc2cccc3cccc1c23      94.3

Here's the next entry for you.
Query: Hello, please tell me recorded growth for this one: CC(=O)ON=C1C=CC(=C(C#N)c2ccccc2)C=C1
Reply: 30.5

###

Could you please report measured growth for the items listed next?
# Test system: SK-MEL-28 melanoma
# experiment_notes: NCI-60 one-dose screen, 48 h (100 = growth as untreated, 0 = no growth, -100 = all killed)
# test_settings: 10 µM unless noted
This is part of a sample that, as a whole, favours compounds with a hit. Of some 83,000 tested, about 20% had one in any assay. Active and inactive are the calls of the source. The calls were made as follows: active = growth percent below 10; inactive = the rest.

Known growth results, listed for orientation:
> print(dat)
                                   molecule          measured
1  O=[N+]([O-])c1ccc2c(N=Nc3ccc4ccccc4c3O)c(O)cc(S(=O)(=O)O)c2c1  98.8% (inactive)
2                       N#CSCc1c(Cl)cccc1Cl  56.2% (inactive)
3  C[n+]1c(/C=C/c2ccc([N+](=O)[O-])cc2)ccc2ccccc21   121% (inactive)
4                        C/C=C1\SC(=S)NC1=O   107% (inactive)

Below are 3 molecules. Give each one its growth.
1. O=C(/C=C\c1cc(Br)ccc1O)/C=C/c1cc(Br)ccc1O
2. CN(C)c1ccc(C(=C2C=CC(=[N+](C)C)C=C2)c2ccc(N(C)C)cc2)cc1 (tested in a mixture with another compound)
3. CCCCCC(CCCCC)C(=O)O

Reply:
1: -66.9% (active); 2: -87% (active); 3: 111% (inactive)

Hi, could you look up growth for each item in my list?
1. Cn1c2c(c3ccccc31)CCN1C[C@@H]3CCCC[C@H]3C[C@@H]21
2. Cc1ccc(N=C=C(c2ccccc2)c2ccccc2)cc1
3. COc1ccccc1/C=C\C(=O)c1ccccc1
4. COC(=O)c1nc(=S)[nH]c(C(=O)OC)c1C(=O)c1ccccn1

Reply:
1: 31.1% (inactive); 2: 106% (inactive); 3: 94.9% (inactive); 4: 38.1% (inactive)
